The following compounds are listed with their measured CC50 at 120 h values.
# Procedure Details: cytotoxicity in MT-4 cells (MTT, culture medium in place of HIV)
# Type: cell-based
# Experimental Context: human, mt-4 cells
Write the value in µg/mL as a bare number.

Here is how some compounds turned out for CC50 at 120 h.
So what's the measured CC50 at 120 h for this one? CC(C)c1nc(CO)n(Cc2ccc(=O)[nH]c2)c1Sc1cc(Cl)cc(Cl)c1 [Compound 116a]
30.7

# lookup: CC50 at 120 h of CCn1c(CCOCc2ccccc2)nc(C(C)C)c1Sc1cc(Cl)cc(Cl)c1 [Compound 122a]
6.3

Continuing:
What value of CC50 at 120 h has been recorded for this entry: CC(C)c1nc(CCO)n(Cc2ccccc2N)c1Sc1cc(Cl)cc(Cl)c1
12.5

Please look up its CC50 at 120 h: CC(C)c1nc(CN)n(C)c1Sc1cccc(Cl)c1.Cl [Compound I-69, hydrochloride]
6.3

----------
# Tested Target: purified recombinant HIV-1 reverse transcriptase (Human immunodeficiency virus type 1 group M subtype B)
# Construct: purified recombinant HIV-1 reverse transcriptase; made in house; host or cells: Escherichia coli
# Procedure Details: reverse transcriptase inhibition, poly(rA)/(dT) template primer, [3H]dTTP uptake
# Assay type: biochemical
Counter-ions that a name gives are not always drawn.
Measured Endpoint: IC50

Quick check: IC50 of Cc1nc(C(C)C)c(Sc2cccc(Cl)c2)n1C ?
3.56 µM

Sample CC(C)c1nc(CO)n(Cc2ccsc2)c1Sc1cc(Cl)cc(Cl)c1 [Compound I-127, hydrochloride] — what was its IC50?
14.8 µM

---
// query IC50 value for entry CC(C)c1nc(CO)n(Cc2cccc([N+](=O)[O-])c2)c1Sc1cc(Cl)cc(Cl)c1 [Compound 103b]
25 µM

I'd like to know its IC50. The compound in question is CC(C)c1nc(CO)n(C)c1Sc1cccc([N+](=O)[O-])c1
4.23 µM

Need IC50 of CC(C)c1nc(COC(N)=O)n(CCc2ccccn2)c1Sc1cc(Cl)cc(Cl)c1 , thanks.
76.9 µM

Data request, read-out IC50, for C=CCn1c(CO)nc(C(C)C)c1Sc1cc(Cl)cc(Cl)c1
2.02 µM

Returns the measured IC50 for the input compound. Input: CC(C)C(=O)c1nc(C(C)C)c(Sc2cc(Cl)cc(Cl)c2)n1C
> 269 µM

# lookup: IC50 of CC(C)c1nc(CO)n(Cc2ccccc2N)c1Sc1cc(Cl)cc(Cl)c1
7.81 µM

# lookup: IC50 of CCn1c(CN)nc(C(C)C)c1Sc1cc(Cl)cc(Cl)c1
0.987 µM

----------
Measured CC50 at 120 h by item
# Procedure Details: cytotoxicity in MT-4 cells (MTT, culture medium in place of HIV)
# Type: cell-based
# Experimental Context: human, mt-4 cells
Counter-ions that a name gives are not always drawn.

Which value of CC50 at 120 h has been reported for CC(C)c1nc(COC(N)=O)n(CCc2ccccn2)c1Sc1cc(Cl)cc(Cl)c1 in the records?
12.5 to 25 µg/mL

Name the recorded CC50 at 120 h for CCn1c(CCCO)nc(C(C)C)c1Sc1cc(Cl)cc(Cl)c1 [Compound 137b] .
6.3 to 12.5 µg/mL

Can you look up the measured CC50 at 120 h of CC(C)c1nc(CCN)n(C)c1Sc1cc(Cl)cc(Cl)c1 for me?
1.5 to 3.2 µg/mL

Could you share which CC50 at 120 h value was measured for CCn1c(CCO)nc(C(C)C)c1Sc1cc(Cl)cc(Cl)c1 [Compound 123a] ?
6.3 to 12.5 µg/mL

Suppose we examine the molecule CC(C)c1nc(CO)n(Cc2ccc(C(C)(C)C)cc2)c1Sc1cc(Cl)cc(Cl)c1 [Compound I-116, hydrochloride] ; what CC50 at 120 h value has been reported?
25 µg/mL

Others:
Which CC50 at 120 h value is on record for CC(C)c1nc(CC(N)=O)n(C)c1Sc1cc(Cl)cc(Cl)c1 ?
25 to 50 µg/mL

Give its CC50 at 120 h value. Item: CC(C)c1nc(CCCO)n(C)c1Sc1cc(Cl)cc(Cl)c1 [Compound 137a]
6.3 to 12.5 µg/mL

What value of measured CC50 at 120 h is listed for CC(C)c1nc(CN)n(Cc2ccccn2)c1Sc1cc(Cl)cc(Cl)c1 ?
6.3 µg/mL

Fill in: CC50 at 120 h of CC(=O)Nc1ccc(Cn2c(CO)nc(C(C)C)c2Sc2cc(Cl)cc(Cl)c2)cc1 is ___
50 µg/mL
